Here, each record is paired with measured IC50 data.
test system: MDA-MB-231; assay: Cytotoxicity assay, MTT colorimetric method; format: cell-based; conditions: MDA-MB-231 human breast cancer cell line; 72 hrs treatment; cell viability by MTT
property measured: IC50 (µg/mL)

>  <molecule>
COC1(c2cc(=O)c3c(ccc4ccccc43)o2)C=CC(=O)C=C1 [compound 15b]

>  <measured result>
0.37

$$$$
>  <molecule>
COc1cc(O)c2c(=O)cc(C3(O)C=CC(=O)C=C3)oc2c1 [compound 18a]

>  <measured result>
0.13

$$$$
>  <molecule>
O=C1C=CC(O)(c2cc(=O)c3ccccc3o2)C=C1

>  <measured result>
0.18

$$$$
>  <molecule>
O=C1C=CC(O)(c2cc(=O)c3c(O)cc(O)cc3o2)C=C1

>  <measured result>
0.41

$$$$
>  <molecule>
COC1(c2cc(=O)c3ccccc3o2)C=CC(=O)C=C1

>  <measured result>
1.47

$$$$
>  <molecule>
COc1cccc2c1C(=O)c1c(O)c3c(c(O)c1C2=O)C[C@@](O)(C(=O)CO)C[C@@H]3O[C@H]1C[C@H](N)[C@H](O)[C@H](C)O1 [Doxorubicin, reference compound]

>  <measured result>
0.08

$$$$
>  <molecule>
O=C1C=CC(O)(c2cc(=O)c3c(ccc4ccccc43)o2)C=C1 [compound 15a]

>  <measured result>
0.12

$$$$
>  <molecule>
O=C1C=CC(O)(c2cc(=O)c3c(O)cccc3o2)C=C1 [compound 10a]

>  <measured result>
0.18

$$$$

* * *

tested on: MCF-7; experiment: Cytotoxicity assay, MTT colorimetric method; assay type: cell-based; conditions: MCF7; MCF-7 human breast cancer cell line; 72 hrs treatment; cell viability by MTT
Labelling field: enter criterion met if recorded IC50 is less than 0.5 µg/mL. Enter criterion not met if it equals or exceeds that cut-off.

>  <compound>
O=C1C=CC(O)(c2cc(=O)c3c(O)cccc3o2)C=C1 [compound 10a]

>  <class name>
criterion not met

$$$$
>  <compound>
COc1cccc2c1C(=O)c1c(O)c3c(c(O)c1C2=O)C[C@@](O)(C(=O)CO)C[C@@H]3O[C@H]1C[C@H](N)[C@H](O)[C@H](C)O1 [Doxorubicin, reference compound]

>  <class name>
criterion met

$$$$
>  <compound>
O=C1C=CC(O)(c2cc(=O)c3c(ccc4ccccc43)o2)C=C1 [compound 15a]

>  <class name>
criterion met

$$$$
>  <compound>
O=C1C=CC(O)(c2cc(=O)c3c(O)cc(O)cc3o2)C=C1

>  <class name>
criterion not met

$$$$
>  <compound>
COC1(c2cc(=O)c3c(ccc4ccccc43)o2)C=CC(=O)C=C1 [compound 15b]

>  <class name>
criterion not met

$$$$
>  <compound>
O=C1C=CC(O)(c2cc(=O)c3ccccc3o2)C=C1

>  <class name>
criterion met

$$$$
>  <compound>
COC1(c2cc(=O)c3ccccc3o2)C=CC(=O)C=C1

>  <class name>
criterion not met

$$$$
